# System: K-562 leukemia
# assay remarks: NCI-60 one-dose screen, 48 h
# condition summary: 10 µM unless noted
About 83,000 compounds went through this panel and 20% of them were active in at least one assay; those are over-represented in the sample as a whole. Active and inactive are the calls of the source. The calls were made as follows: active = growth percent below 10; inactive = the rest.
Outcomes: YES = active, NO = inactive

compound	group
CCCCC[C@H]1CC=C2C(=O)C(Cl)=C[C@@H]2CC=CCCCC(=O)O[C@@H](CCCCC)CC=C2C(=O)C(Cl)=C[C@@H]2CC=CCCCC(=O)O[C@@H](CCCCC)CC=C2C(=O)C(Cl)=C[C@@H]2CC=CCCCC(=O)O1	NO
Cc1cc(Cl)c2c(N(C)C)cccc2n1	NO
C=C(C)[C@@H]1CC[C@]2(C(=O)N3CCCNCC3)CC[C@]3(C)[C@H](CC[C@@H]4[C@@]5(C)CCC(=O)C(C)(C)[C@@H]5CC[C@]43C)[C@@H]12	NO
CCN(CC)CCCCCNc1cc(OC(=O)c2ccccc2)cc2cccnc12	NO
O=C(/C=C/c1ccc2ccccc2c1)Nc1ncc(Cc2ccccc2)s1	NO
O=C(/C=C/c1cccc2ccccc12)Nc1ncc(Cc2ccccc2)s1	YES
O=C1CNCCN1	NO
C=C(C)[C@@H]1CC[C@]2(C(=O)O)CC[C@]3(C)[C@H](CC[C@@H]4[C@@]5(C)C/C(=C/c6ccc(OC)cc6)C(=O)C(C)(C)[C@@H]5CC[C@]43C)[C@@H]12	NO
N#Cc1cnc2cc(OC[C@@H](O)CO)c(NC(=O)CC3CSSC3)cc2c1Nc1ccc(OCc2cccc(F)c2)c(Cl)c1	YES
C=C(C)[C@@H]1CC[C@]2(C=O)CC[C@]3(C)[C@H](CC[C@@H]4[C@@]5(C)C/C(=C/c6cccnc6)C(=O)C(C)(C)[C@@H]5CC[C@]43C)[C@@H]12	NO
OCC1OC(n2cnc3c(Cl)ncnc32)CC1O (stereo unspecified)	NO
COc1cc2nc(Cl)nc(Nc3cccc(C(=O)/C=C/c4ccc(Cl)cc4)c3)c2cc1OC	NO
CC(=O)OC(C)COc1ccc(-c2ccccc2)cc1 (stereo unspecified)	NO
CC(C)=CCC[C@](C)(O)[C@H]1CC[C@]2(C)[C@@H]1CC[C@@H]1[C@@]3(C)C/C(=C/c4ccc(Br)cc4)C(=O)C(C)(C)[C@@H]3CC[C@]12C	NO
CC1(C)C(=O)CC[C@]2(C)[C@H]3C(=O)C=C4[C@@H]5C[C@@](C)(C(=O)NCCNCCN)CC[C@]5(C)CC[C@@]4(C)[C@]3(C)CC[C@@H]12	NO
O=C1CCCC=CC[C@H]2C=C(Cl)C(=O)C2=CC[C@H](CCCCC(F)(F)F)OC(=O)CCCC=CC[C@H]2C=C(Cl)C(=O)C2=CC[C@H](CCCCC(F)(F)F)OC(=O)CCCC=CC[C@H]2C=C(Cl)C(=O)C2=CC[C@H](CCCCC(F)(F)F)O1	NO
CC(C)/C=C/CC[C@](C)(O)[C@H]1CC[C@]2(C)[C@@H]1CC[C@@H]1[C@@]3(C)C/C(=C/c4cccc(C(F)(F)F)c4)C(=O)C(C)(C)[C@@H]3CC[C@]12C	NO
COc1cc(-c2cc3ncccc3c3nc(N)c4cccnc4c23)cc(OC)c1OC	NO
C=C1C(=O)O[C@H]2[C@H]1CC/C(Cn1cc(-c3ccc(OC)cc3)nn1)=C\CC[C@@]1(C)O[C@@H]21	YES
Cc1ccc2c(c1)c1nc3cc(C)c(C)cc3nc1n2CCN(C)C	YES
C=C(C)[C@@H]1CC[C@]2(C(=O)N3CCN(CC)CC3)CC[C@]3(C)[C@H](CC[C@@H]4[C@@](C)(CCC(=O)N5CCN(CC)CC5)[C@H](C(=C)C)CC[C@]43C)[C@@H]12	NO
C[C@]12CC[C@@H]3c4ccc(O)cc4CC[C@H]3[C@@H]1C[C@H](O)[C@@H]2O	NO
Cn1cc(-c2csc(-c3cn(CCCN4CCCCC4)c4ccc(Br)cc34)n2)c2cccnc21	YES
Cn1cc(-c2nc(-c3c[nH]c4ncccc34)cs2)c2cc(Br)ccc21	NO
COc1cc2nc(Cl)nc(Nc3cccc(C(=O)/C=C/c4ccc(F)cc4)c3)c2cc1OC	YES
N#C/C(=C\c1ccc(-c2ccc(Br)cc2)o1)c1nc(-c2cccs2)cs1	NO
COc1cccc(-c2nn(-c3ccccc3)cc2-c2ccnc(NCCCNS(=O)(=O)c3cccc(F)c3)c2)c1	YES
COC(=O)[C@]12CC[C@@H](C)[C@H](C)[C@@H]1C1=CC(=O)[C@@H]3[C@@]4(C)C[C@@H](O)[C@H](O)[C@@]5(C)COC(=C45)C[C@@]3(C)[C@]1(C)CC2	NO
Cn1c2c(c3ccc(Cl)cc31)-n1cccc1C2=O	NO
Cc1cc(Cl)nc(N(CCNc2ccnc3cc(Cl)ccc23)Cc2ccco2)n1	NO
CC(=O)c1c(C)[nH]c(-c2nc3ccc(N4CCN(C)CC4)cc3[nH]2)c1-c1ccc2c(c1)OCCO2	NO
